Measured values drawn from patent US11549198B2 for this set.

Items are presented alongside their recorded n value from the Korsmeyer-Peppas equation of model drug release profile.
Assay: Drug release study of model drugs from corn zein fibers and films in phosphate buffer
Assay type: physicochemical
Details: Fiber; 20 mM phosphate buffer (pH 7.0); up to 96 hours
Number only, no unit.

Here's what some known entries look like.
CO[C@H]1/C=C/O[C@@]2(C)Oc3c(C)c(O)c4c(O)c(c(/C=N/N5CCN(C)CC5)c(O)c4c3C2=O)NC(=O)/C(C)=C\C=C\[C@H](C)[C@H](O)[C@@H](C)[C@@H](O)[C@@H](C)[C@H](OC(C)=O)[C@@H]1C [Rifampin, rifampin] | 0.392
CN(C)C(SCc1ccc2c(c1)-c1nc-2nc2[n-]c(nc3nc(nc4[n-]c(n1)c1ccc(CSC(N(C)C)=[N+](C)C)cc41)-c1ccc(CSC(N(C)C)=[N+](C)C)cc1-3)c1ccc(CSC(N(C)C)=[N+](C)C)cc21)=[N+](C)C.[Cl-].[Cl-].[Cl-].[Cl-].[Cu+2] [Alcian Blue, alcian blue 8GX] | 0.1104
CCN(CC)c1ccc2c(-c3ccccc3C(=O)O)c3ccc(=[N+](CC)CC)cc-3oc2c1.[Cl-] [Rhodamine B, rhodamine B] | 0.337
O=C1/C(=C2\Nc3ccc(S(=O)(=O)[O-])cc3C2=O)Nc2ccc(S(=O)(=O)[O-])cc21.[Na+].[Na+] [Indigo Carmine, indigo carmine] | 0.1318

From here, focus on the item given below.
Value lookup for n value from the Korsmeyer-Peppas equation of model drug release profile; key = CN(C)c1ccc(C(=C2C=CC(=[N+](C)C)C=C2)c2ccc(N(C)C)cc2)cc1 [Crystal Violet, Crystal violet] 0.353
